Items are presented alongside their recorded TGI.
# Tested on: HCC-2998 colon
# run-description: NCI tumour cell line growth inhibition, 48 h

A selection of reference data follows.
compound	TGI
CC1(C)C(=S)C(C)(C)C1=S	> 100 µM
Cc1nc2ccccc2c(=O)n1NC(=O)c1ccccc1O	> 100 µM
O=C(Nc1ccc(Cl)cc1)/C(Cc1cccc[n+]1[O-])=N\Nc1ccc([N+](=O)[O-])cc1[N+](=O)[O-]	> 100 µM
CC1OC(OC2CC(O)C3(CO)C4C(O)CC5(C)C(C6=CC(=O)OC6)CCC5(O)C4CCC3(O)C2)C(O)C(O)C1O (configuration not stated)	0.204 µM
CC(=O)OC[C@]12CC[C@@H]([C@@H](C)C(N)=O)[C@@H]1[C@H]1CC[C@@H]3[C@@]4(C)CC[C@H](OC(C)=O)C(C)(C)[C@@H]4CC[C@@]3(C)[C@]1(C)CC2	26.1 µM
CC(=O)OCC1OC(OC2=C(CC=C(Cl)Cl)C(=O)c3ccccc3C2=O)C(OC(C)=O)C(OC(C)=O)C1OC(C)=O (configuration not stated)	20.9 µM
CN1CCN(Cc2ccc(NC(=O)c3ccc(C#N)c(C#Cc4cnc(N)c5ncccc45)c3)cc2C(F)(F)F)CC1	> 100 µM
N#CC1CCN2N=C(c3ccccc3)SC12c1ccccc1 (configuration not stated)	> 100 µM
N#Cc1c(-c2ccccc2)cc(-c2ccccc2)n(CCCCC(=O)NO)c1=O	10.8 µM
Cc1ccc(CS(=O)(=O)C/N=c2\sc3ccccc3nc2/C=C(\O)c2ccc(Cl)cc2)cc1	> 10 µM

Task: Check the records and state TGI for COP1(=O)NCc2ncccc2O1 (configuration not stated)
Result: > 100 µM

Task: Check the records and state TGI for `CNc1ccc(-c2cc(=O)oc3ccc(Cl)cc23)cc1`
Result: 17.1 µM

Task: Check the records and state TGI for `CSc1nc2c(N)ncnc2n1C`
Result: > 100 µM

Task: Check the records and state TGI for CCOP(=O)(OCC)C(Cc1ccc(OC)c(OC)c1)N=C(c1ccccc1)c1ccccc1 (configuration not stated)
Result: 52.4 µM

Task: Check the records and state TGI for `COc1ccc(-c2cc(/C=C3\C(=O)Nc4ccc(OC)cc43)[nH]n2)cc1`
Result: > 100 µM

Task: Check the records and state TGI for `O=C(CCCc1ccccn1)c1ccccc1`
Result: > 100 µM

Task: Check the records and state TGI for COc1ccc(C(C2C(=O)N(C)C(=O)N(C)C2=O)C(F)(F)C(=O)N(C)C)cc1 (configuration not stated)
Result: > 100 µM

Task: Check the records and state TGI for `COC(=O)c1ccc([N+](=O)[O-])c(O)c1`
Result: > 100 µM

* * *

# Tested on: HCC-2998 colon
# run-description: NCI tumour cell line growth inhibition, 48 h
measurement-name: TGI (µM)
Entry rule: numbers only, all in µM.

>>> print(df.to_string())
                                   molecule  scale_unit  measured_result
0  COc1cc(C2CC(c3cc(C)ccc3C)=NN2c2ccc(S(=O)(=O)NC(=O)NCc3ccccc3)cc2)cc(OC)c1OC (centres undefined)          µM             6.47
1  CC1=CCC[C@@H]2[C@@](C)(Cc3cc(O)ccc3O)[C@H](C)CC[C@@]12C          µM             22.5
2  COc1ccc(-c2nn(-c3cccc(NC(=O)Nc4cc(C(F)(F)F)cc(C(F)(F)F)c4)c3)cc2-c2ccncc2)cc1Cl          µM             9.18

Task: Check the records and state TGI for CCN1CC2=C(NC(=S)NC2c2cc(OC)c(OC)c(OC)c2)/C(=C/c2cc(OC)c(OC)c(OC)c2)C1 (centres undefined)
Result: 88.8

* * *

# System: HS 578T breast
# run-description: NCI tumour cell line growth inhibition, 48 h; in the data active means GI50 below about 0.43 µM; inactive means the rest
Permitted responses: active, inactive

compound	label-class
CCOC(=O)c1c(C)n2c(=O)cc(C)c3c(OC(C)=O)c(OC(C)=O)cc1c32	inactive

Task: Fill in: this test's call for CCOC(=O)C1=C(C)NC2SC(=O)/C(=C\c3ccccc3)N2C1c1ccccc1 (centres undefined) is ___
Result: inactive

Task: Fill in: this test's call for `COc1ccc(-c2cc(/C=C3\C(=O)Nc4ccc(OC)cc43)[nH]n2)cc1` is ___
Result: inactive

Task: Fill in: this test's call for CCN(CC)CCCC(Nc1c2ccc(Cl)cc2nc2ccc(OC)cc12)c1ccc(F)cc1 (centres undefined) is ___
Result: inactive

Task: Fill in: this test's call for CC1OC(OC2CC(O)C3(CO)C4C(O)CC5(C)C(C6=CC(=O)OC6)CCC5(O)C4CCC3(O)C2)C(O)C(O)C1O (centres undefined) is ___
Result: active

Task: Fill in: this test's call for `COc1cc([C@@H]2c3cc4c(cc3[C@@H](O[C@@H]3O[C@@H]5CO[C@@H](c6cccs6)O[C@H]5[C@H](O)[C@H]3O)[C@H]3COC(=O)[C@H]23)OCO4)cc(OC)c1O` is ___
Result: inactive

* * *

Items are presented alongside their recorded GI50.
# Tested on: NCI-H226 lung
# run-description: NCI tumour cell line growth inhibition, 48 h

A selection of reference data follows.
>>> df
                                   compound         target  measured_result
0  COc1cccc(C2C3=C(COC3=O)N(CCO)c3cc4c(cc32)OCCO4)c1 (stereo not drawn)  NCI-H226 lung          7.26 µM
1  COc1cc(C2CC(c3cc(C)ccc3C)=NN2c2ccc(S(=O)(=O)NC(=O)NCc3ccccc3)cc2)cc(OC)c1OC (stereo not drawn)  NCI-H226 lung          3.63 µM
2  C=C(C)[C@@H]1CCC2=C[C@@H](OC2=O)[C@@H](C(=C)C)C(=O)/C=C(/C)C(=O)C1  NCI-H226 lung          36.9 µM
3  CCCN(CCC)CCCNC(=O)c1cc2c(-c3ccc(OC)c(OC)c3)nn(C)c2s1  NCI-H226 lung         > 100 µM
4  COc1c(CNC(=O)CCl)cc2[nH]c(C)cc2c1CNC(=O)CCl  NCI-H226 lung           9.2 µM

Task: Check the records and state GI50 for OC(COc1cccc2ccccc12)CN1CCN(c2ccccc2)CC1 (stereo not drawn)
Result: 14.7 µM

Task: Check the records and state GI50 for `CN(C)CCCNc1nccc(-c2c(-c3ccc(F)cc3)nn3cc(C(F)(F)F)ccc23)n1`
Result: 3.72 µM

Task: Check the records and state GI50 for CC1=C([Se]CC(OC(=O)[C@@H](CO)NC(=O)OC(C)(C)C)C(=O)NC(C)(C)C)C(=O)c2ccccc2C1=O (stereo partly drawn)
Result: 1.96 µM

Task: Check the records and state GI50 for NCC1OC(OC2C(CO)OC(OC3C(O)C(N)CC(N)C3OC3OC(CO)C(O)C(O)C3N)C2O)C(N)C(O)C1O (stereo not drawn)
Result: > 50 µg/mL

Task: Check the records and state GI50 for `N#Cc1c(NC(=O)CN2CCOCC2)sc2c1CCCC2`
Result: > 25 µM

Task: Check the records and state GI50 for CCOC(=O)C1=C(C)NC2SC(=O)/C(=C\c3ccccc3)N2C1c1ccccc1 (stereo not drawn)
Result: > 100 µM

Task: Check the records and state GI50 for `CCCCN(CCCC)CCCN=c1nc2c(c(N)n1-c1ccccc1)c(=S)n(-c1ccccc1)c(=S)n2-c1ccccc1`
Result: 1.61 µM

Task: Check the records and state GI50 for CC(=O)OCC1OC(OC2=C(CC=C(Cl)Cl)C(=O)c3ccccc3C2=O)C(OC(C)=O)C(OC(C)=O)C1OC(C)=O (stereo not drawn)
Result: 15.6 µM

* * *

# System: SNB-19 CNS
# run-description: NCI tumour cell line growth inhibition, 48 h
Items are presented alongside their recorded TGI.

A selection of reference data follows.
                                   compound  measured_result
0  c1ccc(-c2nn(-c3ccccc3)[n+](-c3cccc4ccccc34)n2)cc1         > 100 µM
1               CC1(C)CN=C(Nc2ccc(Cl)cc2)S1         > 100 µM
2  CC(/C=C/c1ccc([N+](=O)[O-])o1)=N/N1CC(CN2CCOCC2)OC1=O (stereo not given)         > 100 µM
3     COC(=O)NN=C(c1ccc(Cl)cc1)c1ccc(Cl)cc1         > 100 µM

Task: Check the records and state TGI for COc1ccc(C2=NN(c3ccccc3)C(c3cc4cc(Br)ccc4nc3Cl)C2)cc1 (stereo not given)
Result: > 25 µM

* * *

Items are presented alongside their recorded TGI.
# System: DMS 114 small cell lung
# run-description: NCI tumour cell line growth inhibition, 48 h
Entry rule: numbers only, all in µM.

In [3]: df
Out[3]:
                                   compound  measurement_name  scale_unit  measured_result
0  COc1cc(C(C)c2cc3c(cc2OCCCCOc2cc4c(cc2C(C)c2cc(OC)c(OC)c(OC)c2)OCO4)OCO3)cc(OC)c1OC (stereo not drawn)               TGI          µM             45.1
1  CC(C)=CCc1c(C)cc2cc3c(c(O)c2c1O)C(O)=CC(=O)C3(CC=C(C)C)C/C=C(\C)CO (stereo not drawn)               TGI          µM               82
2     Cc1cc(C)cc(Sc2c([N+](=O)[O-])ncn2C)c1               TGI          µM             34.4
3  CCOC(=O)C(=O)N=Nc1nc2c(O)c3ccccc3c(O)c2s1               TGI          µM             3.39
4  CSc1ccc2c(cc1=O)C(NC(=O)c1ccc(OC(C)=O)cc1)CCc1cc(O)c(O)c(O)c1-2 (stereo not drawn)               TGI          µM             52.4
5     CCCCN(CCCC)CCCCNc1c(C)cnc2cc(Cl)ccc12               TGI          µM             56.9

Task: Check the records and state TGI for `CC[C@@H](C(=O)[C@@H](C)[C@@H](O)[C@H](C)CCc1ccc(C)c(O)c1C(=O)O)[C@H]1O[C@](CC)([C@H]2CC[C@](O)(CC)[C@H](C)O2)C[C@@H]1C`
Result: 4.15

Task: Check the records and state TGI for `N#CC(C#N)=CSc1ccccc1`
Result: 43
